Attribution: PubChem BioAssay AID492999

# measurement_protocol: increase of M3R-evoked calcium signal – cell-based, validation screen, HEK293 M3R/RGS4, calcium flux, RGS4 inhibitor project (AID 492999)
# test_context: HEK293 M3R/RGS4, carbachol calcium Fluo-4 fluorescence, at 10 µM, carbachol added at its EC20, 0 = buffer wells, 100 = carbachol control
The whole screen tested about 1,700 compounds, of which about 1,100 (65%) were called active.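 The calls were made as follows: active = duplicate-averaged calcium response above the buffer-only control mean plus 5 SD of those controls; inactive = the rest.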 So high a share suggests a set chosen from earlier hits. The list is a sample of the results.
Your answer must be one of the following: active, inactive

Please review the following examples before continuing.
                                   compound  assigned_category
0       C=CCOc1ccc(/C=C2/C(=O)ON=C2C)cc1OCC             active
1  C=CCSc1nc2c(c(=O)[nH]1)C(C(C)C)C(C#N)=C(N)O2 (stereo unspecified)             active
2  COc1ccc(OC)c(S(=O)(=O)N2CCCC(C(=O)N3CCC(C(N)=O)CC3)C2)c1 (stereo unspecified)           inactive
3  COc1ccc(C(C[N+](=O)[O-])n2nc(C)cc2C)cc1 (stereo unspecified)             active
4  Cc1ccc(NC(=O)c2c(NC(=O)CCC(=O)O)sc3c2CCCCC3)cc1           inactive
5  CC(C)c1nc(SCC(=O)Nc2cccc(C(=O)O)c2)c2c3c(sc2n1)CCCC3             active
6  CCCCC1S/C(=N/N=C/c2cccs2)NC1=O (stereo unspecified)             active
7  CCc1ccc(C2C(C#N)=C(N)N(N3CCOCC3)C3=C2C(=O)CC(C)(C)C3)s1 (stereo unspecified)           inactive
8  O=C1c2ccccc2NC(c2ccc(-c3cccc(Cl)c3)o2)N1O (stereo unspecified)             active
9  C1=C(N2CCOCC2)/C(=C/c2nc3ccccc3[nH]2)CC1             active

Consider the additional compound presented here.
Request: What classification did Cc1ccc(Nc2nc(N)nc(CN3CCN(Cc4ccccc4)CC3)n2)cc1Cl end up with in this test?
Result: inactive

###

# measurement_protocol: increase of M3R-evoked calcium signal – cell-based, validation screen, HEK293 M3R/RGS4, calcium flux, RGS4 inhibitor project (AID 492999)
# test_context: HEK293 M3R/RGS4, carbachol calcium Fluo-4 fluorescence, at 10 µM, carbachol added at its EC20, 0 = buffer wells, 100 = carbachol control
The whole screen tested about 1,700 compounds, of which about 1,100 (65%) were called active.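 How the source made its calls: active means duplicate-averaged calcium response above the buffer-only control mean plus 5 SD of those controls; inactive means the rest.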 So high a share suggests a set chosen from earlier hits. Only a sample is shown.
Your answer must be one of the following: True for active, False for inactive

                                   compound  assigned_category
0  O=C(/C=C/c1ccc(Cl)c([N+](=O)[O-])c1)c1cccnc1               True

Request: What classification did CC(C)Cc1nc(Nc2ccc(S(=O)(=O)N3CCCC3)cc2)c2nnn(Cc3ccccc3)c2n1 end up with in this test?
Result: False

Request: What classification did O=C(NCCCc1ccccc1)C1CCC(CNc2c(N3CCCCC3)c(=O)c2=O)CC1 (stereo not drawn) end up with in this test?
Result: False

Request: What classification did COC(=O)C1CCN(C(=O)c2cc(=O)[nH]c3ccccc23)CC1 end up with in this test?
Result: False

Request: What classification did COc1cc2c(cc1O)C(SC)=NC(C)(C)C2 end up with in this test?
Result: True

###

# measurement_protocol: increase of M3R-evoked calcium signal – cell-based, validation screen, HEK293 M3R/RGS4, calcium flux, RGS4 inhibitor project (AID 492999)
# test_context: HEK293 M3R/RGS4, carbachol calcium Fluo-4 fluorescence, at 10 µM, carbachol added at its EC20, 0 = buffer wells, 100 = carbachol control
Screen size: about 1,700 compounds; about 1,100 (65%) were called active.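 Rule for the calls: active = duplicate-averaged calcium response above the buffer-only control mean plus 5 SD of those controls; inactive = the rest.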 The set was probably picked from earlier hits. Not all results are given here.
Your answer must be one of the following: active, inactive

                                   compound  assigned_category
0  O=C(CCN1CCc2ccccc2C(O)(c2ccccc2)C1)c1ccc2c(c1)OCCO2 (stereo unspecified)             active

Request: What classification did C#CCOc1ccc(/C=C2/C(=O)NN(c3ccccc3)C2=O)cc1OC end up with in this test?
Result: active

Request: What classification did Cc1ccc(C)c(Cn2nnc3c(=O)[nH]c(C(=O)Nc4ccc(F)cc4)nc32)c1 end up with in this test?
Result: active

Request: What classification did O=C(COC(=O)c1cccc(Br)c1)Nc1cccc2c1C(=O)c1ccccc1C2=O end up with in this test?
Result: inactive

Request: What classification did Nc1cccc(-c2cc(-c3ccccc3)nc(-c3cccc(N)c3)n2)c1 end up with in this test?
Result: active

Request: What classification did O=C(/C=C/Sc1ncn[nH]1)c1ccc(Cl)cc1 end up with in this test?
Result: active

Request: What classification did COCCCNC(=S)N(CCN(C)C)Cc1cc2cc3c(cc2[nH]c1=O)OCCO3 end up with in this test?
Result: inactive

Request: What classification did O=C(O)c1ccc2c(=O)n3c(nc2c1)/C(=C/c1ccc(Cl)c([N+](=O)[O-])c1)CC3 end up with in this test?
Result: inactive

Request: What classification did Cc1ccc(/C=C2\CCn3c2nc2cc(C(=O)O)ccc2c3=O)c(C)c1 end up with in this test?
Result: active

Request: What classification did CCOC(=O)C1=NN(c2ccc(Cl)cc2)/C(=C/C2=NCCc3cc(OC)c(OC)cc32)S1 end up with in this test?
Result: active

Request: What classification did COc1ccccc1C1C(C#N)=C(N)Oc2c1c(-c1ccccc1)nn2-c1ccccc1 (stereo unspecified) end up with in this test?
Result: active

Request: What classification did COc1cc(/C=C2/SC(=S)N(Cc3ccccc3)C2=O)cc(OC)c1O end up with in this test?
Result: inactive

Request: What classification did Cc1ccc(Sc2cc(N3CCOCC3)nc(-c3ccccc3)n2)cc1 end up with in this test?
Result: active

Request: What classification did Cc1ccc(SC(CC(=O)c2ccc(C(C)(C)C)cc2)C(=O)O)cc1 (stereo unspecified) end up with in this test?
Result: inactive

Request: What classification did CCOc1ccc(NC(=O)C/C(C)=N/NC(=O)Cc2cccs2)cc1 end up with in this test?
Result: inactive

###

# measurement_protocol: increase of M3R-evoked calcium signal – cell-based, validation screen, HEK293 M3R/RGS4, calcium flux, RGS4 inhibitor project (AID 492999)
# test_context: HEK293 M3R/RGS4, carbachol calcium Fluo-4 fluorescence, at 10 µM, carbachol added at its EC20, 0 = buffer wells, 100 = carbachol control
Hit rate of the full screen: of about 1,700 compounds, about 1,100 (65%) were called active.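 Rule for the calls: active = duplicate-averaged calcium response above the buffer-only control mean plus 5 SD of those controls; inactive = the rest.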 So high a share suggests a set chosen from earlier hits. Only a sample is shown.
Your answer must be one of the following: 1 = active, -1 = inactive

>>> print(df.to_string())
                                   compound  assigned_category
0         Cc1ccsc1/C=N/n1c(=S)[nH]nc(C)c1=O                  1
1  CCOC(=O)[C@@H]1[C@H]2COc3ccc(Br)cc3[C@H]2N2C(=O)N(c3ccc(Cl)cc3)C(=O)[C@@]12C                 -1
2  Cc1nc(Nc2ccc(S(=O)(=O)N3CCCC3)cc2)c2nnn(Cc3ccccc3)c2n1                 -1

Request: What classification did CCC(c1nnnn1Cc1ccco1)N(Cc1cc2cc(OC)ccc2[nH]c1=O)C1CCCCC1 (stereo not given) end up with in this test?
Result: -1

Request: What classification did Brc1ccc(-c2csc(N/N=C/c3cccnc3)n2)cc1 end up with in this test?
Result: 1

Request: What classification did CCOC(=O)C1CCN(C(c2cc3cc(C)cc(C)c3[nH]c2=O)c2nnnn2C2CCCCC2)CC1 (stereo not given) end up with in this test?
Result: 1

Request: What classification did O=C1Nc2ccc(Br)cc2/C1=N/N=C/C1=C(N2CCOCC2)C(=C\c2ccccc2)/CC1 end up with in this test?
Result: 1

Request: What classification did Cc1cc(-c2n[nH]c(=S)n2/N=C/C(Br)=C/c2ccccc2)n[nH]1 end up with in this test?
Result: 1

Request: What classification did CCn1c(O)c(N=NC2=NC(=O)CS2)c2cc(C)ccc21 end up with in this test?
Result: -1

Request: What classification did Oc1ccc(/C=N/Nc2ccc(C(F)(F)F)cn2)cc1O end up with in this test?
Result: 1

###

# measurement_protocol: increase of M3R-evoked calcium signal – cell-based, validation screen, HEK293 M3R/RGS4, calcium flux, RGS4 inhibitor project (AID 492999)
# test_context: HEK293 M3R/RGS4, carbachol calcium Fluo-4 fluorescence, at 10 µM, carbachol added at its EC20, 0 = buffer wells, 100 = carbachol control
Among all 1,700 compounds or so, about 1,100 (65%) were called active.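 How the source made its calls: active means duplicate-averaged calcium response above the buffer-only control mean plus 5 SD of those controls; inactive means the rest.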 The set was probably picked from earlier hits. The list is a sample of the results.
Your answer must be one of the following: true (1) for active, false (0) for inactive

Please review the following examples before continuing.
In [3]: df
Out[3]:
                                chem_smiles  assigned_category
0            Cn1c(-c2ccco2)nc2cc3ccccc3cc21          false (0)
1  COc1ccc(NCc2nnc(SCc3ccccc3)n2-c2ccc(OC)cc2)cc1          false (0)

Consider the additional compound presented here.
Request: What classification did COc1ccc(-c2csc(Nc3ccc(O)cc3)n2)cc1 end up with in this test?
Result: true (1)
